Parameter chromatographic logP: see the listing below.
# test: log P[n] by reversed-phase HPLC (C18), LC-UV in the neutral range, EEC Directive 79/831 Annex V.A8
# Type: physicochemical
# reported_conditions: reversed-phase HPLC column (C18), 79 mg/l ammonium carbonate in water and acetonitrile, gradient 10% to 95% acetonitrile

1) Cn1cnc2cc(C(F)(F)F)ncc21 [Example 8 Step 3]: 1.1
2) CCSc1c(-c2nc3cc(C(F)(F)F)nnc3n2C)nc(-c2ccc(Cl)cc2)n1C [Example 2]: 4.08
3) CCSc1c(-c2nc3cc(C(F)(F)C(F)(F)F)nnc3n2C)nc(-c2ccc(Cl)s2)n1C: 4.92
4) CCSc1c(-c2nc3cc(C(F)(F)C(F)(F)F)nnc3n2C)ncn1C [Example 3]: 2.86
5) CCS(=O)(=O)c1c(-c2nc3cc(C(F)(F)C(F)(F)F)nnc3n2C)ncn1C [Example 4]: 2.21

Data request: Return chromatographic logP for the following molecule: CCSc1c(-c2nc3cc(SC(F)(F)F)nnc3n2C)nc(C2CC2)n1C
Data returned: 3.4

Data request: Read the entry CCSc1c(I)nc(Br)n1C [Example 8 Step 2] and write its reported chromatographic logP.
Data returned: 2.68

Data request: Please indicate chromatographic logP recorded for CCSc1c(-c2nc3cc(C(F)(F)F)ncc3n2C)nc(Br)n1C [Example 8]
Data returned: 2.85

Cited source for all entries: patent US12319697B2
